Please respond with reported growth inhibition for every item in the list.
# test_method_notes: NCI Yeast Anticancer Drug Screen. Data for the sgs1 mgt1 strain (AID 161);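 also: 0% = growth of cultures given vehicle only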
# conditions: S. cerevisiae sgs1 mgt1 strain, at 50.0 µM, stronger effect = higher value
# Protocol: Growth inhibition of yeast strains with defined genetic alterations is measured as a screen for potential anti-cancer activity. Selected strains with alterations in DNA damage repair or cell cycle control were exposed to compounds and growth inhibition was measured relative to vehicle treated controls. The strain used in this assay is sgs1 mgt1
The panel holds about 79,000 compounds, 15% with a hit somewhere; the sample as a whole holds those more often.
Form entry: value (%) — number only.

Q: Given CSc1nc(C)cc(=O)n1C1OC(COC(C)=O)C(OC(C)=O)C(OC(C)=O)C1OC(C)=O (stereo unspecified) , state its recorded growth inhibition.
Ans: -7.35

Q: Also check `COc1ccc(C=O)c(NC(=O)C(C)(C)C)c1`
Ans: 9.8

Q: Also check `CCOC(=O)c1c(C)c2c(n1C)CC/C(=C\N1CCN(c3ccccc3)CC1)C2=O`
Ans: -19.5

Q: Also check `CCOC(=O)c1cc(-c2ccc(OC)c(OC)c2)c[nH]1`
Ans: 40.2

Q: Also check `O=C(O)/C(=C(\CO)c1ccccc1)c1ccccc1`
Ans: 11

Q: Also check `O=c1[nH]cnc2ncnn12`
Ans: 9.65

Q: Also check `C/C=C/C(=O)Nc1cc(Cl)ccc1C`
Ans: -4.95

Q: Also check `CCCCCCCCCCCCSC(=O)NCCC`
Ans: 1.6

Q: Also check `O=C(N/C(=C\c1ccccc1[N+](=O)[O-])c1nc2ccccc2[nH]1)c1ccccc1`
Ans: 1.2

Q: Also check CC(C(=O)O)C(C)C(=O)Nc1ccccc1 (stereo unspecified)
Ans: 11.1

Q: Also check S=C1N=C2c3ccccc3C2C(=S)S1 (stereo unspecified)
Ans: 0

Q: Also check COC1OCC(O)C(O)C1OC (stereo unspecified)
Ans: -16.2

Q: Also check `CCCCNCCOC(=O)c1ccc(N)cc1`
Ans: 1.9

Q: Also check `N#CCc1ccc(Nc2cc(=O)[nH]c(=O)[nH]2)cc1`
Ans: 3.65

Q: Also check `CCN(CC)CC[n+]1ccc2c(C)c3[nH]c4ccccc4c3c(C)c2c1`
Ans: -4.1

Q: Also check `NC(=Nc1ccc(Br)cc1)/N=C(/N)Nc1cccc(S(=O)(=O)Nc2ncc(Cl)cn2)c1`
Ans: 25.2

Q: Also check `COc1ccc(C(C)=O)c(C)c1OC`
Ans: 19.6

Q: Also check `O=C1c2ccccc2C(=O)N1CNc1cccc(Cl)c1`
Ans: 9.45

Q: Also check `O=C1C=C(Nc2cc(Cl)ccc2Cl)c2ccccc2C1=O`
Ans: -8.8

Q: Also check COC1C(CO)OC(n2c3c(Cl)cccc3c3c4c(c5c6cccc(Cl)c6[nH]c5c32)C(=O)NC4=O)C(O)C1O (stereo unspecified)
Ans: -1.4

Q: Also check CCCCCCC(O)C/C=C\CCCCCCCC(=O)O (stereo unspecified)
Ans: -30.9

Q: Also check C=CCC1=C(C)C(O)CC1=O (stereo unspecified)
Ans: -0.75

Q: Also check `Cc1cc(NC(=O)C(=O)Cc2cnc3ccccc3n2)c(S(=O)(=O)O)cc1Cl`
Ans: -2.7

Q: Also check `CSCCCS/C1=C/CCCCCCCCCC1`
Ans: -21.9

Q: Also check `C#CC1(c2ccccc2)OCCO1`
Ans: 16.3

Q: Also check Cc1ccc(S(=O)CC(Cl)c2ccccc2)cc1 (stereo unspecified)
Ans: 13.2
